- Experiment Notes: shake flask on a mixture of 185; loss from the water phase only; LC-QTOF peak areas
- Experimental Conditions: room
Measured Endpoint: log partition oleylalcohol / HPLC water, unbuffered, traces of methanol / DMSO (log10)

Molecule	Unit Text	Measured
CCc1ccc(C(=O)NN(C(=O)c2cc(C)cc(C)c2)C(C)(C)C)cc1	log10	1.649
c1ccc2[nH]c(-c3cscn3)nc2c1	log10	0.7334
Cc1ccc([N+](=O)[O-])cc1S(=O)(=O)O	log10	2.608
CC(C)C1(C)N=C(c2nc3ccccc3cc2C(=O)O)NC1=O (stereo not shown)	log10	0.635
CCc1nn(C)c(C(=O)NCc2ccc(C(C)(C)C)cc2)c1Cl	log10	0.96
CCOc1ccc2[nH]cc(C(=O)NCc3ccccc3)c(=O)c2n1	log10	2.032
Oc1c(Cl)cc(Cl)cc1Sc1cc(Cl)cc(Cl)c1O	log10	1.386
Cc1cc(C)nc(NS(=O)(=O)c2ccc(N)cc2)n1	log10	-0.5276
CO/N=C(/C1=NOCCO1)c1ccccc1Oc1ncnc(Oc2ccccc2Cl)c1F	log10	2.253
CCNC(=O)C1CC(C)CCC1C(C)C (stereo not shown)	log10	1.811

----------
- Experiment Notes: shake flask on a mixture of 185; loss from the water phase only; LC-Orbitrap peak areas
- Experimental Conditions: room
Measured Endpoint: log partition 1-octanol / HPLC water, unbuffered, traces of methanol / DMSO (log10)

Compound	Measured
Cc1cc(SCc2sc(-c3ccc(C(F)(F)F)c(F)c3)nc2C)ccc1OCC(=O)O	-0.1342
Cc1cc(C)nc(NS(=O)(=O)c2ccc(N)cc2)n1	-0.03015
CCCC1COC(Cn2cncn2)(c2ccc(Cl)cc2Cl)O1 (centres unmarked)	0.3483
Cc1ccc(N)c(S(=O)(=O)O)c1	0.1434
O=C(O)CCN(C1(C(=O)NO)CCCC1)S(=O)(=O)c1ccc(Oc2ccc(F)cc2)cc1	-0.5893
CC(=O)/C=C/c1ccccc1	0.1948
COc1ccccc1/C=C/C=O	1.387
c1ccc(CCCc2ccncc2)cc1	0.08604
CCCCOC(=O)C(C)Oc1ccc(Oc2ccc(C(F)(F)F)cn2)cc1 (centres unmarked)	1.133
O=C(c1ccccc1)c1ccc(O)cc1O	1.665
CCc1ccc(C(=O)NN(C(=O)c2cc(C)cc(C)c2)C(C)(C)C)cc1	1.544

----------
- Experiment Notes: shake flask on a mixture of 185; loss from the water phase only; LC-Orbitrap peak areas
- Experimental Conditions: room
Quick reference: log partition 1-octanol / HPLC water, unbuffered, traces of methanol / DMSO of the listed items.
Measured Endpoint: log partition 1-octanol / HPLC water, unbuffered, traces of methanol / DMSO (log10)

Compound	Measured
O=C(Nc1ccccc1-c1ccc(Cl)cc1)c1cccnc1Cl	3.752
CCOC(=O)CC(=O)c1ccccc1	-0.2282
Cc1ccc([N+](=O)[O-])cc1S(=O)(=O)O	1.274
Nc1cc2c3c(c1)C(c1ccccc1)=N[C@@H](NC(=O)c1cccnc1)C(=O)N3CC2	1.8
CCCCCCOc1cc(C)c(O)c(C)c1C	-0.6155
CCCCC(CC)C(=O)OCCOCCOCCOCCOC(=O)C(CC)CCCC (centres unmarked)	1.119
CCCCNC(=S)NCCCC	1.103
Cc1cc2c3c(c1)C(c1ccccc1)=N[C@@H](NC(=O)c1ccncc1)C(=O)N3CC2	1.331
Nc1nc(Cl)nc2c1ncn2[C@H]1C[C@H](O)[C@@H](CO)O1	0.3863
CN(C)c1ccc(Cc2ccc(N(C)C)cc2)cc1	0.3418
CC(=O)c1ccc2ccccc2c1	0.3821

The values you see were collected from paper PMC10569036.
